As shown below, each of these sequences has a reported plasma membrane surface immunostaining intensity value.
Test system: HEK293T
Assay: plasma membrane surface immunostaining intensity (anti-HA, deep receptor scanning) (arbitrary fluorescence units); higher = higher plasma membrane expression
Settings: GPCR class: A
Give a plain numeric answer without units written out.

Chain	Measured result
MAQQWSLQRLAGRHPQDSYEDSTQSSIFTYTNSNSTRGPFEGPNYHIAPRWVYHLTSVWMIFVVTASVFTNGLVLAATMKFKKLRHPLNWILVNLAVADLAETVIASTISIVNQVSGYFVLGHPMCVLEGYTVSLCGITGLWSLAIISWERWMVVCKPFGNVRFDAKLAIVGIAFSWIWAAVWTAPPIFGWSRYWPHGLKTSCGPDVFSGSSYPGVQSYMIVLMVTCCIIPLAIIMLCYLQVWLAIRAVAKQQKESESTQKAEKEVTRMVVVMIFAYCVCWGPYTFFACFAAANPGYAFHPLMAALPAYFAKSATIYNPVIYVFMNRQFRNCILQLFGKKVDDGSELSSASKTEVSSVSSVSPA [OPN1LW]	261
MAEHDYHEDYGFSSFNDSSQEEHQDFLQFSKVFLPCMYLVVFVCGLVGNSLVLVISIFYHKLQSLTDVFLVNLPLADLVFVCTLPFWAYAGIHEWVFGQVMCKSLLGIYTINFYTSMLILTCITVDRFIVVVKATKAYNQQAKRMTWGKVTSLLIWVISLLVSLPQIIYGNVFNLDKLICGYHDEAISTVVLATQMTLGFFLPLLTMIVCYSVIIKTLLHAGGFQKHRSLKIIFLVMAVFLLTQMPFNLMKFIRSTHWEYYAMTSFHYTIMVTEAIAYLRACLNPVLYAFVSLKFRKNFWKLVKDIGCLPYLGVSHQWKSSEDNSKTFSASHNVEATSMFQL [CXCR6]	967

Measured plasma membrane surface immunostaining intensity of MPANFTEGSFDSSGTGQTLDSSPVACTETVTFTEVVEGKEWGSFYYSFKTEQLITLWVLFVFTIVGNSVVLFSTWRRKKKSRMTFFVTQLAITDSFTGLVNILTDINWRFTGDFTAPDLVCRVVRYLQVVLLYASTYVLVSLSIDRYHAIVYPMKFLQGEKQARVLIVIAWSLSFLFSIPTLIIFGKRTLSNGEVQCWALWPDDSYWTPYMTIVAFLVYFIPLTIISIMYGIVIRTIWIKSKTYETVISNCSDGKLCSSYNRGLISKAKIKAIKYSIIIILAFICCWSPYFLFDILDNFNLLPDTQERFYASVIIQNLPALNSAINPLIYCVFSSSISFPCREQRSQDSRMTFRERTERHEMQILSKPEFI [NPSR1] : 457

Measured plasma membrane surface immunostaining intensity of MDGSNVTSFVVEEPTNISTGRNASVGNAHRQIPIVHWVIMSISPVGFVENGILLWFLCFRMRRNPFTVYITHLSIADISLLFCIFILSIDYALDYELSSGHYYTIVTLSVTFLFGYNTGLYLLTAISVERCLSVLYPIWYRCHRPKYQSALVCALLWALSCLVTTMEYVMCIDREEESHSRNDCRAVIIFIAILSFLVFTPLMLVSSTILVVKIRKNTWASHSSKLYIVIMVTIIIFLIFAMPMRLLYLLYYEYWSTFGNLHHISLLFSTINSSANPFIYFFVGSSKKKRFKESLKVVLTRAFKDEMQPRRQKDNCNTVTVETVV [MAS1] : 782

Origin of the recorded values: the supplement of paper PMC12458215
